Measured values drawn from patent US20190071490A1 for this set.

Target: T1, rat α-CGRP (1-37) (rat, C-terminal amide; N-terminal biotin when captured on the SA chip)
T1 construct: also called rat α (1-37); α-rat
T1 peptide: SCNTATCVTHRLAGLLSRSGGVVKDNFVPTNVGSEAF
Experiment: Biacore, 37°C, Fab over CGRP on SA chip
Procedure: Biacore assay for affinity determination. […] All Biacore assays were conducted in HBS-EP running buffer (10 mM HEPES pH 7.4, 150 mM NaCl, 3 mM EDTA, 0.005% v/v polysorbate P20). CGRP surfaces were prepared by diluting the N-biotinylated CGRP to a concentration of less than 0.001 mg/mL into HBS-EP buffer and injecting it across the SA sensor chip using variable contact times. […] Samples were typically injected for 1 minute at 100 μL/min and dissociation times of at least 10 minutes were allowed. […]
EXPERIMENTAL_ENDPOINT: Kd (nM)
All answers are understood in nM, so give the number only.

BINDER	Kd (nM)
G1 variant M64 Fab (Fab, V domains shown, Fab; constant domains as m1) VH: EVQLVESGGGLVQPGGSLRLSCAASGFTFSNYWISWVRQAPGKGLEWVAEIRSKSDNVATHYAEAVKGRFTISRDNAKNSLYLQMNSLRAEDTAVYYCTVYFDYGLAIQNYWGQGTLVTVSS VL: EIVLTQSPATLSLSPGERATLSCKASKNVGTYVSWYQQKPGQAPRLLIYAASNRYLGIPARFSGSGSGTDFTLTISSLEPEDFAVYYCSQSYNYPYTFGQGTKLEIK	1300
G1 variant M46 Fab (Fab, V domains shown, Fab; constant domains as m1) VH: EVQLVESGGGLVQPGGSLRLSCAASGFTFSNYWISWVRQAPGKGLEWVAEIRSKSDNEATFYAEAVKGRFTISRDNAKNSLYLQMNSLRAEDTAVYYCTVYFDYGLAIQNYWGQGTLVTVSS VL: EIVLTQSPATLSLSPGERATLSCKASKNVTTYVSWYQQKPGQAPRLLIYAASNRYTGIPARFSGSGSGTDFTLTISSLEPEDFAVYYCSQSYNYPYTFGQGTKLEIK	163
G1 variant M28 Fab (Fab, V domains shown, Fab; constant domains as m1) VH: EVQLVESGGGLVQPGGSLRLSCAASGFTFSNYWISWVRQAPGKGLEWVAEIRSRSDNSATHYAEAVKGRFTISRDNAKNSLYLQMNSLRAEDTAVYYCTVYFDYGLAIQNYWGQGTLVTVSS VL: EIVLTQSPATLSLSPGERATLSCKASKNVDTYVSWYQQKPGQAPRLLIYGASNRYLGIPARFSGSGSGTDFTLTISSLEPEDFAVYYCSQSYNYPYTFGQGTKLEIK	69.4
G1 variant M70 Fab (Fab, V domains shown, Fab; constant domains as m1; printed L561 read as L56I) VH: EVQLVESGGGLVQPGGSLRLSCAASGFTFSNYWISWVRQAPGKGLEWVAEIRSKSDSSATHYAEAVKGRFTISRDNAKNSLYLQMNSLRAEDTAVYYCTVYFDYGLAIQNYWGQGTLVTVSS VL: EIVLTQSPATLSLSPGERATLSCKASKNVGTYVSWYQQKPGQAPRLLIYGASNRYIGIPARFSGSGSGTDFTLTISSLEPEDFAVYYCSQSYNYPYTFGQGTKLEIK	337

// next entry
Kd for G1 variant M45 Fab (Fab, V domains shown, Fab; constant domains as m1) VH: EVQLVESGGGLVQPGGSLRLSCAASGFTFSNYWISWVRQAPGKGLEWVAEIRSKSDNEATHYADAVKGRFTISRDNAKNSLYLQMNSLRAEDTAVYYCTVYFDYGLAIQNYWGQGTLVTVSS VL: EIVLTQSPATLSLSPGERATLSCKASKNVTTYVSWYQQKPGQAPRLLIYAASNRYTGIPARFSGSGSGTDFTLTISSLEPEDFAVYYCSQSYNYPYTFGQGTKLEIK is 259
